Biological target: Muscarinic acetylcholine receptor M4 (Homo sapiens) (UniProt P08173)
Sequence (P08173 whole entry, looked up): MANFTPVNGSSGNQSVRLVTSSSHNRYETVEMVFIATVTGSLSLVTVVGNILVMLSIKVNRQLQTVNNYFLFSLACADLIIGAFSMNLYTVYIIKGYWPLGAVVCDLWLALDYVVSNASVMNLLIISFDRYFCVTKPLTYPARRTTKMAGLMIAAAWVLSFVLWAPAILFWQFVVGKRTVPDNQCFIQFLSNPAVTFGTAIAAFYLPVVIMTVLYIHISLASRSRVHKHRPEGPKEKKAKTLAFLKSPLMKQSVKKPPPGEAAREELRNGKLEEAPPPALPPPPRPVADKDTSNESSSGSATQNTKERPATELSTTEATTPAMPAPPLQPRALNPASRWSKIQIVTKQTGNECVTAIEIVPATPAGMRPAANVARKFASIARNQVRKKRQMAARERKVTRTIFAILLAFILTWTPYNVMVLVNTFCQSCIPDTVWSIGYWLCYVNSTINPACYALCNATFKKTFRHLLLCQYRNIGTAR
Experiment: compounds altering M4/GIRK thallium flux, either direction, primary screen, M4 allosteric agonist project, cell-based, HEK293 M4/GIRK, BTC-AM (AID 625);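 further: thallium influx through GIRK channels coupled to M4 in HEK293 cells with BTC-AM dye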
Conditions: at 10 µM, actives lie on both sides
measuredParameter: fluorescence slope
# output: bare number, no unit

Indicate the recorded fluorescence slope value for this molecule: C=CCNc1nc(C)nc(OC)n1 0.00536

Indicate the recorded fluorescence slope value for this molecule: COc1cccc(C2/C(=C(\O)c3ccc4c(c3)OCCO4)C(=O)C(=O)N2CCCN(C)C)c1OC (stereo unspecified) 0.00452

Indicate the recorded fluorescence slope value for this molecule: Cc1ccc(C(=O)C2=C(O)C(=O)N(CCN3CCOCC3)C2c2ccccn2)o1 (stereo unspecified) 0.00402

Indicate the recorded fluorescence slope value for this molecule: COC(=O)NCC12CC3CC(C1)CC(CNC(=O)OC)(C3)C2 0.00455

Indicate the recorded fluorescence slope value for this molecule: O=c1oc2c(CN3CCCCC3)c(O)ccc2c2c1CCCCC2 0.00521

Indicate the recorded fluorescence slope value for this molecule: COc1cc(N2CCCC2)c(OC)cc1/C=c1/sc2nc3ccccc3n2c1=O 0.00712

Indicate the recorded fluorescence slope value for this molecule: Cc1cc(/C=N/n2cnnc2)c(C)n1-c1ccc2c(c1)OCO2 0.00571

Indicate the recorded fluorescence slope value for this molecule: Cn1c(=O)c2c(nc(NCc3ccc4c(c3)OCO4)n2Cc2ccccc2)n(C)c1=O 0.00776

Indicate the recorded fluorescence slope value for this molecule: COc1ccc(/C(O)=C2/C(=O)C(=O)N(c3nc(C)c(C)s3)C2c2ccco2)cc1 (stereo unspecified) 0.00557

Indicate the recorded fluorescence slope value for this molecule: COC(=O)c1ccc(CSc2nc(N3CCOCC3)c3c(c2C#N)CC(C)(C)OC3)o1 0.00467

Indicate the recorded fluorescence slope value for this molecule: CCCCC(CCC(=O)Nc1ccc(C(=O)OC)cc1)C(=O)O (stereo unspecified) 0.00484
